# system tested: Bile acid receptor (Homo sapiens, UniProt Q96RI1)
# Sequence (Q96RI1 whole entry, the tested form may be a part): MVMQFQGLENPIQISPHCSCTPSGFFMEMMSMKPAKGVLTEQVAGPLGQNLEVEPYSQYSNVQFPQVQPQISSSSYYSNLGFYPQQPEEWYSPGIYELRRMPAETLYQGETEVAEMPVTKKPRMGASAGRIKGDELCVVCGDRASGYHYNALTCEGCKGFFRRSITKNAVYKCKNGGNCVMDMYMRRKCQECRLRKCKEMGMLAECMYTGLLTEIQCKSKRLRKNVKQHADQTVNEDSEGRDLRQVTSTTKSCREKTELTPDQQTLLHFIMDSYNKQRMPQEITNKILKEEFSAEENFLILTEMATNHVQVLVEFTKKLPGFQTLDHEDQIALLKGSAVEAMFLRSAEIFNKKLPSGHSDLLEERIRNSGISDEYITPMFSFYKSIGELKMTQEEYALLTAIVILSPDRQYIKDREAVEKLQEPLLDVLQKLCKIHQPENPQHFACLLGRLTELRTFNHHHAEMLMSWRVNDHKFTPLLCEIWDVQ
# assay procedure: Agonist activity at human […] FXR LBD expressed in HEK293 cells coexpressing GAL4-DNA bindig domain and pFRluc by mammalian one-hybrid assay
# Assay type: functional, cell-based
# stated conditions: read-out: EC50
quantity: EC50 (nM)
Provide only the numeric value, understood in nM.

Some entries whose results are on file:
{"columns": ["structure notation", "system tested", "output unit", "EC50"],
 "data": [
  ["CC(C)c1onc(-c2c(Cl)cccc2Cl)c1COc1ccc(N(C)C(=O)c2ccc(C(=O)O)cc2)c(C(F)(F)F)n1", "Bile acid receptor (Homo sapiens, UniProt Q96RI1)", "nM", 316],
  ["CC(C)c1onc(-c2c(Cl)cccc2Cl)c1COc1ccc(N(C)Cc2cccc(C(=O)O)c2)c(C(F)(F)F)n1", "Bile acid receptor (Homo sapiens, UniProt Q96RI1)", "nM", 80]
]}

Now, please, on to the next compound.
Req: Return reported EC50; argument: CC(C)c1onc(-c2c(Cl)cccc2Cl)c1COc1cnc(N(C)Cc2cccc(C(=O)O)c2)c(Cl)c1
Resp: 100

----------
# system tested: Bile acid receptor (Homo sapiens) (UniProt Q96RI1)
# Sequence (Q96RI1 whole entry, the tested form may be a part): as above
# assay procedure: Agonist activity at human […] FXR LBD expressed in HEK293 cells coexpressing GAL4-DNA bindig domain and pFRluc by mammalian one-hybrid assay relative to GW-4064
# Format: functional, cell-based
quantity: Efficacy (%)
// units = %; emit number, no label

Worked examples, 5 molecules total:
{"columns": ["molecule", "system tested", "Efficacy, %"],
 "data": [
  ["O=C(O)c1ccccc1OCc1ccc(OCc2c(-c3c(Cl)cccc3Cl)noc2C2CC2)nc1C(F)(F)F", "Bile acid receptor (Homo sapiens) (UniProt Q96RI1)", 63],
  ["CN(Cc1ccc(C(=O)O)cc1)c1ccc(OCc2c(-c3c(Cl)cccc3Cl)noc2C2CC2)nc1C(F)(F)F", "Bile acid receptor (Homo sapiens) (UniProt Q96RI1)", 81],
  ["CC(C)c1onc(-c2c(Cl)cccc2Cl)c1COc1cnc(N(C)Cc2cccc(C(=O)O)c2)c(Cl)c1", "Bile acid receptor (Homo sapiens) (UniProt Q96RI1)", 42],
  ["Cc1cc(OCc2c(-c3c(Cl)cccc3Cl)noc2C(C)C)nc2ccccc12", "Bile acid receptor (Homo sapiens) (UniProt Q96RI1)", 40],
  ["CC(Nc1ccc(C(=O)O)cc1)c1ccc(OCc2c(-c3c(Cl)cccc3Cl)noc2C2CC2)nc1C(F)(F)F (stereo unspecified)", "Bile acid receptor (Homo sapiens) (UniProt Q96RI1)", 59]
]}

Req: Given the entry CC(c1ccc(OCc2c(-c3c(Cl)cccc3Cl)noc2C2CC2)nc1C(F)(F)F)N(C)c1ccc(C(=O)O)cc1 (stereo unspecified) , report its measured Efficacy.
Resp: 55

Req: For the molecule shown here, CC(Oc1ccc(C(=O)O)cc1)c1ccc(OCc2c(-c3c(Cl)cccc3Cl)noc2C2CC2)nc1C(F)(F)F (stereo unspecified) , give the reported Efficacy.
Resp: 70

Req: Dear colleague, I am looking for the recorded Efficacy of the following molecule: Cc1cc(OCc2c(-c3c(Cl)cccc3Cl)noc2C(C)C)ncc1[N+](=O)[O-]
Resp: 58

Req: Which Efficacy reading was recorded for the molecule CC(C)c1onc(-c2c(Cl)cccc2Cl)c1COc1ccc(N(C)Cc2ccc(CCC(=O)O)cc2)c(C(F)(F)F)n1 ?
Resp: 55

Req: Given the molecule CC(C)c1onc(-c2c(Cl)cccc2Cl)c1COc1ccc(NC(=O)c2ccc(C(=O)O)cc2)c(C(F)(F)F)n1 , what is its reported Efficacy?
Resp: 21

Req: Using the record for CN(Cc1ccc(C(=O)NCCS(=O)(=O)O)cc1)c1ccc(OCc2c(-c3c(Cl)cccc3Cl)noc2C2CC2)nc1C(F)(F)F , report its Efficacy.
Resp: 57

Req: For the molecule shown here, CC(Oc1cccc(C(=O)O)c1)c1ccc(OCc2c(-c3c(Cl)cccc3Cl)noc2C2CC2)nc1C(F)(F)F (stereo unspecified) , give the reported Efficacy.
Resp: 50

Req: Which measured Efficacy value corresponds to O=C(O)c1ccc(OCc2ccc(OCc3c(-c4c(Cl)cccc4Cl)noc3C3CC3)nc2C(F)(F)F)cc1 ?
Resp: 59

Req: Entry CC(C)c1onc(-c2c(Cl)cccc2Cl)c1COc1ccc(NCc2ccc(C(=O)O)cc2)c(C(F)(F)F)n1 has what Efficacy?
Resp: 48

Req: Please give the measured Efficacy for this molecule: CC(C)c1onc(-c2c(Cl)cccc2Cl)c1COc1ccc(N(C)Cc2ccc(OCC(=O)O)cc2)c(C(F)(F)F)n1
Resp: 69

Req: Report Efficacy for CN(Cc1cccc(C(=O)O)c1)c1ccc(OCc2c(-c3c(Cl)cccc3Cl)noc2C2CC2)nc1C(F)(F)F please.
Resp: 79

----------
# system tested: Bile acid receptor (Homo sapiens) (UniProt Q96RI1)
# assay procedure: Agonist activity at human full length FXR transfected in HEK293 cells coexpressing pTRexDest/pGL2promotor assessed as luciferase activity by direct reporter cellular assay relative to GW-4064
# Type: functional, cell-based
Listed molecules paired with reported Efficacy
Response body: numeric value in %, unit text excluded.

Answered examples (2):
{"columns": ["structure notation", "system tested", "output unit", "data value"],
 "data": [
  ["CC(C)c1onc(-c2c(Cl)cccc2Cl)c1COc1cnc(N(C)Cc2cccc(C(=O)O)c2)c(Cl)c1", "Bile acid receptor (Homo sapiens) (UniProt Q96RI1)", "%", 54],
  ["CC(C)c1onc(-c2c(Cl)cccc2Cl)c1COc1ccc(N(C)Cc2ccc(C(=O)O)cc2)c(C(F)(F)F)n1", "Bile acid receptor (Homo sapiens) (UniProt Q96RI1)", "%", 57]
]}

Turning now to a further record.
Req: Entry CC(C)c1onc(-c2c(Cl)cccc2Cl)c1COc1ccc(N(C)C(=O)c2ccc(C(=O)O)cc2)c(C(F)(F)F)n1 has what Efficacy?
Resp: 63

----------
# system tested: Bile acid receptor (Homo sapiens, UniProt Q96RI1)
# assay procedure: Agonist activity at human GST-fused FXR LBD assessed as cofactor peptide interaction with receptor ligand binding domain by FRET assay
One threshold, 80 nM, splits the recorded EC50 values: lower ones are yes, equal or higher ones are no.

// below: answered compounds
{"columns": ["compound", "group label"],
 "data": [
  ["CC(C)c1onc(-c2c(Cl)cccc2Cl)c1COc1ccc(NC(=O)c2ccc(C(=O)O)cc2)c(C(F)(F)F)n1", "no"],
  ["CC(C)c1onc(-c2c(Cl)cccc2Cl)c1COc1ccc(N(C)Cc2cccc(C(=O)NS(C)(=O)=O)c2)c(C(F)(F)F)n1", "yes"],
  ["CC(c1ccc(OCc2c(-c3c(Cl)cccc3Cl)noc2C2CC2)nc1C(F)(F)F)N(C)c1ccc(C(=O)O)cc1 (stereo unspecified)", "no"]
]}

Req: Find out if reported EC50 for CC(C)c1onc(-c2c(Cl)cccc2Cl)c1COc1ccc(N(C)Cc2ccc(C(=O)O)cc2)c(C(F)(F)F)n1 is less than 80 nM
Resp: yes

Req: Just wondering, is EC50 of CC(Oc1ccc(C(=O)O)cc1)c1ccc(OCc2c(-c3c(Cl)cccc3Cl)noc2C2CC2)nc1C(F)(F)F (stereo unspecified) below 80 nM?
Resp: no

Req: Quick check: EC50 of O=C(O)c1cccc(OCc2ccc(OCc3c(-c4c(Cl)cccc4Cl)noc3C3CC3)nc2C(F)(F)F)c1 under 80 nM?
Resp: yes

Req: Please state whether EC50 is below 80 nM for CC(C)c1onc(-c2c(Cl)cccc2Cl)c1COc1cnc(N(C)Cc2ccc(C(=O)O)cc2)c(Cl)c1
Resp: no

----------
# system tested: Bile acid receptor (Homo sapiens, UniProt Q96RI1)
# assay procedure: Agonist activity at human GST-fused FXR LBD assessed as cofactor peptide interaction with receptor ligand binding domain by FRET assay
Measured EC50, listed per entry for reference.
Hi! Could you send only the number? It should be in nM, unit omitted.

Some compounds with known EC50 results, for comparison:
{"columns": ["compound", "output unit", "data value"],
 "data": [
  ["CN(Cc1cccc(C(=O)O)c1)c1ccc(OCc2c(-c3c(Cl)cccc3Cl)noc2C2CC2)nc1C(F)(F)F", "nM", 3],
  ["Cc1cc(OCc2c(-c3c(Cl)cccc3Cl)[n-][o+]c2C(C)C)ncc1[N+](=O)[O-]", "nM", 89],
  ["CC(C)c1onc(-c2c(Cl)cccc2Cl)c1COc1ccc(N(C)C(=O)c2cccc(C(=O)O)c2)c(C(F)(F)F)n1", "nM", 433],
  ["CC(Oc1cccc(C(=O)O)c1)c1ccc(OCc2c(-c3c(Cl)cccc3Cl)noc2C2CC2)nc1C(F)(F)F (centres undefined)", "nM", 155],
  ["O=C(O)c1ccc(OCc2ccc(OCc3c(-c4c(Cl)cccc4Cl)noc3C3CC3)nc2C(F)(F)F)cc1", "nM", 76],
  ["CC(C)c1onc(-c2c(Cl)cccc2Cl)c1COc1ccc(N(C)Cc2cccc(C(=O)O)c2)c(C(F)(F)F)n1", "nM", 12],
  ["CC(C)c1onc(-c2c(Cl)cccc2Cl)c1COc1cnc(N(C)Cc2cccc(C(=O)O)c2)c(Cl)c1", "nM", 190],
  ["CC(C)c1onc(-c2c(Cl)cccc2Cl)c1COc1ccc(N(C)C(=O)c2ccc(C(=O)O)cc2)c(C(F)(F)F)n1", "nM", 235]
]}

Here is the next item to consider.
Req: Recorded EC50 of Cc1cc(OCc2c(-c3c(Cl)cccc3Cl)noc2C(C)C)nc2ccccc12 , please.
Resp: 147

// data source = ChEMBL document CHEMBL1208782
